Conditions: in THF, 318.15 K
MEASUREMENT LABEL: solubility (mole fraction)

| SMILES | MEASUREMENT LABEL | OBS VALUE |
| --- | --- | --- |
| CC(=O)c1c(C)c([N+](=O)[O-])c(C(C)(C)C)c([N+](=O)[O-])c1C | solubility (mole fraction) | 0.313 |

---

Conditions: in n-hexane, 318.15 K
MEASUREMENT LABEL: solubility (mole fraction)

| SMILES | OBS VALUE |
| --- | --- |
| CC(=O)c1c(C)c([N+](=O)[O-])c(C(C)(C)C)c([N+](=O)[O-])c1C | 0.00744 |

Data provenance is BigSolDB 2.1.
